Data origin: PubChem BioAssay (NCI)

tested on: OVCAR-8 ovarian; test: NCI-60 one-dose screen, 48 h; details: 10 µM
About 83,000 compounds went through this panel and 20% of them were active in at least one assay; those are over-represented in the sample as a whole. The source made the active and inactive calls. How the source made its calls: active means growth percent below 10; inactive means the rest.
Assign a class; possible classes are 1 (active), 0 (inactive)

Study these solved cases before continuing.
>>> assigned_class("O=C(COc1cccc(/C=C2\\CSc3ccccc3C2=O)c1)c1ccc(Cl)cc1")
1
>>> assigned_class("CS(=O)(=O)c1nccc(-c2c(-c3ccc(OCCc4ccccc4)cc3)nc3sccn23)n1")
0
>>> assigned_class("Cc1ccc(C2=NN(c3ccc(S(C)(=O)=O)cc3)C(=O)CC2)cc1")
0
>>> assigned_class("O=C1C=C(Nc2cccc(Br)c2)c2ccccc2C1=O")
0
>>> assigned_class("CCOC(=O)c1cc(C(=O)c2cc(OC)c(OC)c(OC)c2)n2c1ccc1c3cccnc3ccc12")
0
>>> assigned_class("CC(=O)Nc1ccc2c(c1)C(=O)c1cccc(C(=O)O)c1-2")
0

In: Could you kindly confirm the outcome this assay logged for COc1cccc(C2C(C#N)=C(N)Oc3cc(N)ccc32)c1 (stereo not given) ?
Out: 0

In: // return assay outcome for COc1ccc(-c2nn(-c3cccc(Cl)c3)cc2-c2cc(-c3ccccc3)[nH]c(=O)c2C#N)cc1
Out: 0

In: Hi, do you know how CC(C)N(CCOc1ccc(-c2nc3sccn3c2-c2ccnc(S(C)(=O)=O)n2)cc1)C(C)C came out in this test?
Out: 0

In: What did this assay record as the result for Cc1ccc(NC(=O)N2CCCCC2)cc1[N+](=O)[O-] ?
Out: 0

In: Please let me know the test result on file for C/C=C/C1=CN2C(=O)c3cc(OC4OC(C)C(NC)C(C)(O)C4O)c(C)c(O)c3N=C[C@@H]2C1 (stereo not given in full) .
Out: 1

In: For CCC1NC(=O)c2cc(S(N)(=O)=O)c(Cl)cc2N1 (stereo not given) , what call appears in the results of this test?
Out: 0

In: Per the records of this test, what outcome belongs to COc1ccc(CCN2CCC(Nc3nc4ccccc4n3Cc3ccc(F)cc3)CC2)cc1 ?
Out: 1

In: Field: outcome | Entry: Cc1cc(=O)n2nnc3cc(C(F)(F)F)ccc3n12
Out: 0

In: What was the test verdict on COc1ccc(-c2nnc(SCC(=O)Nc3ccc(C(=O)/C=C/c4ccccc4)cc3)n2-c2ccccc2)cc1OC ?
Out: 0

In: Hello, I am checking results. What call was entered for N#Cc1c(-c2ccc(Cl)cc2)n(O)c2ccccc12 ?
Out: 0

In: What did the test return for CCOC(=O)c1cc(C(=O)c2ccc(F)cc2F)n2ccccc12 ?
Out: 0

In: Given COc1ccc(-c2nn(-c3cccc(Cl)c3)cc2-c2nc(N)[nH]c(=O)c2C#N)cc1 , state the outcome it received in this test.
Out: 0

In: How did this test come out for CC(C)(C)OC(=O)N1CCc2c(sc3ncnc(N/N=C/c4ccc(Br)cc4)c23)C1 ?
Out: 0

In: Please let me know the test result on file for COc1cc(C)ccc1Oc1nc(Nc2ccc(N3CCOCC3)cc2)ncc1NC(=O)Nc1cc(C(F)(F)F)cc(C(F)(F)F)c1 .
Out: 0

----------
system: SNB-19 CNS; experiment: NCI-60 one-dose screen, 48 h (100 = growth as untreated, 0 = no growth, -100 = all killed); conditions: 10 µM
The panel holds about 83,000 compounds, 20% with a hit somewhere; the sample as a whole holds those more often.
Assay Readout: growth (%)
Numeric answer only, unit % assumed.

Please review the entries below; each comes with its answer.
>>> experimental_result("CCOC(=O)c1cc(C(=O)c2cc(OC)cc(OC)c2)n2nc(C)ccc12")
39.4
>>> experimental_result("COc1ccc(/C(C#N)=C/c2ccccc2OC)cc1")
51.9
>>> experimental_result("COc1cc(-c2nn(-c3cccc(NC(=O)NCCNC(=O)c4ccccc4)c3)cc2-c2ccncc2)ccc1Cl")
35.3

The record that follows has no growth shown yet.
In: Check SNB-19 CNS data and give growth for O=C(N/N=C/c1ccc(Cl)cc1)c1ccc(Cc2n[nH]c(=O)c3cccnc23)cc1 .
Out: 89

----------
test system: MDA-MB-231 breast; experiment: NCI-60 one-dose screen, 48 h (100 = growth as untreated, 0 = no growth, -100 = all killed); settings: 10 µM
This is part of a sample that, as a whole, favours compounds with a hit. Of some 83,000 tested, about 20% had one in any assay. Calls of active or inactive are those of the source. How the source made its calls: active means growth percent below 10; inactive means the rest.
Assay Readout: growth

Below: 2 compounds and their reported growth.
>>> experimental_result("O=C(CCn1cnc2c(cc(-c3ccccc3)n2-c2ccccc2)c1=O)Nc1ccc(F)cc1")
"68.7% (inactive)"
>>> experimental_result("COc1ccc2cc(-c3nc4ccccc4s3)c(Cl)nc2c1OC")
"87.3% (inactive)"

In: Complete the entry with growth for CC(C)(C)c1ccc(S(=O)(=O)N[C@H]2CC[C@H]3[C@@H]4CCc5cc(O)c([N+](=O)[O-])cc5[C@H]4CC[C@]23C)cc1
Out: 35.7% (inactive)

In: Dear colleague, please send me the reported growth for C=C(C)[C@@H]1CC[C@]2(COCCC#N)CC[C@]3(C)[C@H](CC[C@@H]4[C@@]5(C)Cc6c([nH]c7ccccc67)C(C)(C)[C@@H]5CC[C@]43C)[C@@H]12 when you can.
Out: 109% (inactive)

----------
test system: T-47D breast; assay: NCI-60 one-dose screen, 48 h; details: 10 µM
Compounds without any hit were thinned out: in the full panel of roughly 83,000, 20% have a hit. The source made the active and inactive calls. The calls were made as follows: active = growth percent below 10; inactive = the rest.
The reply should name one outcome from True = active, False = inactive

Solved entries:
>>> assigned_class("C1CN(CC2CCC(CN3CCOCC3)O2)CCO1 (stereo unspecified)")
"False"
>>> assigned_class("CN1CCN(CC(=O)Nc2cccc(-n3cc(-c4ccncc4)c(-c4ccc(Cl)c(O)c4)n3)c2)CC1")
"False"
>>> assigned_class("CC[C@@H](C(=O)[C@@H](C)[C@@H](O)[C@H](C)[C@@H]1O[C@@H]([C@@H](CC)C(=O)N(CC)CC)CC[C@@H]1C)C1O[C@]2(C=CC(=O)[C@]3(CC[C@@](C)([C@H]4CC[C@](O)(CC)[C@H](C)O4)O3)O2)[C@H](C)C[C@@H]1C (stereo partly specified)")
"False"
>>> assigned_class("CCOC(=O)C(C)(c1ccccc1)c1ccccc1")
"False"
>>> assigned_class("CN1C(C(=O)Nc2ccccn2)=C(O)c2sc(Cl)cc2S1(=O)=O")
"False"

In: Can you look up the reported call for O=C(CCCCNC(=O)c1nc(-c2ccccc2)n(-c2ccccc2)n1)NO for me?
Out: False

In: Write down the call the test reported for this compound. Item: CCCCCOC(=O)Nc1nc(=O)n(C2O[C@H](C)[C@@H](O)[C@H]2O)cc1F (stereo partly specified)
Out: False

In: Look up the recorded call for CC(=O)Nc1cc2c(cc1Cl)Cc1cc(Cl)ccc1-2 in this test.
Out: False

In: Look up the recorded call for COc1ccc2nc3cc(Cl)ccc3c(N)c2c1 in this test.
Out: True

In: Returns: the outcome recorded for Cc1cc(CCNC=O)c(C)c2c1sc1ccccc12 in this assay.
Out: False

----------
test system: EKVX NSCLC; test: NCI-60 one-dose screen, 48 h; details: 10 µM
Compounds without any hit were thinned out: in the full panel of roughly 83,000, 20% have a hit. Active and inactive are the calls of the source. Rule for the calls: active = growth percent below 10; inactive = the rest.
Returns: one label drawn from 1 = active, -1 = inactive

See these solved cases before continuing.
>>> assigned_class("O=S(=O)(Oc1ccc(-c2ccc3sccc3c2)cc1)c1ccccc1")
-1
>>> assigned_class("O=C(c1ccccc1)N(C(=O)c1ccccc1)N1CCCC1")
-1
>>> assigned_class("CS(=O)(=O)c1nccc(-c2c(-c3cccc(OCCc4ccccc4)c3)nc3sccn23)n1")
-1
>>> assigned_class("CC(C)N(CCOc1cccc(-c2nc3sccn3c2-c2ccnc(S(C)(=O)=O)n2)c1)C(C)C")
-1

In: Assay result, entry CC(C)(C)c1ccc(S(=O)(=O)Oc2ccc(NC(=O)C3CCCCC3)cc2)cc1 — outcome?
Out: -1

In: I would be grateful if you could indicate the recorded call for O=C1/C=C/[C@@H](O)[C@@H]2C[C@@H](O)C[C@H]2/C=C/CCC[C@H](C(F)(F)F)O1 .
Out: -1

In: Assay outcome for CS(=O)(=O)c1nccc(-c2c(-c3ccc(OCCc4ccccc4)cc3)nc3sccn23)n1 : what was it?
Out: -1

In: Call for entry CC(C)(C)OC(=O)CC(S(=O)(=O)c1ccccc1)S(=O)(=O)c1ccccc1 :
Out: -1

In: Call for entry CC1=NN(C(=O)c2nn(-c3ccc(Cl)cc3)cc2O)C(=O)C1 :
Out: -1
